- STUDY SYSTEM: Human GLP-1 receptor (Homo sapiens)
- Construct: The full-length cDNA was cloned in pcDNA3.1(+); expressed in transfected cells
- Sequence (P43220 24-463): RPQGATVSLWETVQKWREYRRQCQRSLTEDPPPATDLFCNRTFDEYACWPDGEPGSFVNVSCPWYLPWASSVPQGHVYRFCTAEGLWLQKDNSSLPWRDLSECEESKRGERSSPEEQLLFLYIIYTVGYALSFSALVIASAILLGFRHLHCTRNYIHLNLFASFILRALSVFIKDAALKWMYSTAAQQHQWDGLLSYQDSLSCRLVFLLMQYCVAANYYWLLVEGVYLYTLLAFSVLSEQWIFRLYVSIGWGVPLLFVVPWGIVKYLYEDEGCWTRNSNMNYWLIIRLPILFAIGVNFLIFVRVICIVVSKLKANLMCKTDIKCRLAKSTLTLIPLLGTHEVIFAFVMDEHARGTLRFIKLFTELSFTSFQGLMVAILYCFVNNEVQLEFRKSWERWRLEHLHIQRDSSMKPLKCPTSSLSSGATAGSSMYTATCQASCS
- PROTOCOL DESCRIPTION: In vitro Human GLP-1 R agonist activity (cyclic AMP determination) in CHO/human GLP1R cells
- Format: cell-based
- CONDITION: 1 nM test compound
Property: Human GLP-1 R activity (cAMP release), % activity with respect to control; scope: individual compounds
Hi! Could you send only the number? It should be in %, unit omitted.

Using known records, supply Human GLP-1 R activity (cAMP release), % activity with respect to control for CCc1cc(OC)ccc1-c1ccc(CC(NC(=O)[C@H](CC(=O)O)NC(=O)[C@H](CO)NC(=O)[C@@H](NC(=O)C(C)(Cc2ccccc2F)NC(=O)[C@@H](NC(=O)CNC(=O)C(CCC#N)NC(=O)C(C)(C)NC(=O)[C@@H](N)Cc2c[nH]cn2)[C@@H](C)O)[C@H](C)O)C(=O)NC(CCCc2ccccc2F)C(N)=O)cc1 (single isomer, unassigned)
99

Using known records, supply Human GLP-1 R activity (cAMP release), % activity with respect to control for CCc1cc(OC)ccc1-c1ccc(CC(CNC(CCCc2ccccc2)C(N)=O)NC[C@H](CC(=O)O)NC(=O)[C@H](CO)NC(=O)[C@@H](NC(=O)C(C)(Cc2ccccc2F)NC(=O)[C@@H](NC(=O)CNC(=O)[C@H](CCC(N)=O)NC(=O)C(C)(C)NC(=O)[C@H](Cc2c[nH]cn2)NC(=O)OC)[C@@H](C)O)[C@@H](C)O)cc1 (single isomer, unassigned)
38
